# TEST_NAME: Study of Chromogenic Substrate Properties: absorbance maxima, shift, extinction coefficient (Table D)
# Type: physicochemical
# TEST_PARAMETERS: substrate; values are ε × 10^3
A collection of molecules and their measured ε × 10^3 Substrate
# output: bare number, no unit

The following molecules have reported results that may help.
CC[N+]1=C(C=Cc2ccc(O[C@@H]3O[C@H](CO)[C@H](O)[C@H](O)[C@H]3O)c3ccccc23)C(C)(C)c2ccccc21 | 28.0
CC[N+]1=C(C=Cc2ccc(O[C@@H]3O[C@H](CO)[C@H](O)[C@H](O)[C@H]3O)cc2)C(C)(C)c2ccccc21 | 25.3
CC[N+]1=C(C=Cc2ccc3cc(O[C@@H]4O[C@H](CO)[C@H](O)[C@H](O)[C@H]4O)ccc3c2)C(C)(C)c2ccccc21 | 32.2
Cc1ccc2oc(C=Cc3ccc(O[C@@H]4O[C@H](CO)[C@H](O)[C@H](O)[C@H]4O)c4ccccc34)[n+](CCC(=O)O)c2c1 | 15.8
CC[n+]1c(C=Cc2ccc(O[C@@H]3O[C@H](CO)[C@H](O)[C@H](O)[C@H]3O)c3ccccc23)ccc2ccccc21 | 16.0

# ---- query molecule ----
Exercise: // query ε × 10^3 Substrate value for entry `CC[n+]1c(C=Cc2ccc(O[C@@H]3O[C@H](CO)[C@H](O)[C@H](O)[C@H]3O)c3ccccc23)sc2cc(OC)ccc21`
Solution: 10.5

----------
A collection of molecules and their measured Kcat
# Test system: β-galactosidase
# TEST_NAME: Study of Chromogenic Substrate Properties: enzyme turnover, Km and Kcat (Table D)
# Assay type: biochemical

The following molecules have reported results that may help.
CC[N+]1=C(C=Cc2ccc3cc(O[C@@H]4O[C@H](CO)[C@H](O)[C@H](O)[C@H]4O)ccc3c2)C(C)(C)c2ccccc21 [Compound 18] | 1.3 × 10^4 mole/min per mole active site
Cc1ccc2oc(C=Cc3ccc(O[C@@H]4O[C@H](CO)[C@H](O)[C@H](O)[C@H]4O)c4ccccc34)[n+](CCC(=O)O)c2c1 [Compound 25] | 9.8 × 10^2 mole/min per mole active site

# ---- query molecule ----
Exercise: // query Kcat value for entry CC[n+]1c(C=Cc2ccc(O[C@@H]3O[C@H](CO)[C@H](O)[C@H](O)[C@H]3O)c3ccccc23)sc2cc(OC)ccc21 [Compound 21]
Solution: 2.8 × 10^3 mole/min per mole active site

----------
# TEST_NAME: Study of Chromogenic Substrate Properties: absorbance maxima, shift, extinction coefficient (Table D)
# Format: physicochemical
# TEST_PARAMETERS: chromogen; colour in words where no value
MEASURE_NAME: λ max Chromogen

CC[n+]1c(C=Cc2ccc(O[C@@H]3O[C@H](CO)[C@H](O)[C@H](O)[C@H]3O)c3ccccc23)sc2ccc(C)cc21 | blue

----------
# TEST_NAME: Study of Chromogenic Substrate Properties: absorbance maxima, shift, extinction coefficient (Table D)
# Assay type: physicochemical
# TEST_PARAMETERS: substrate; colour in words where no value
A collection of compounds and their measured λ max Substrate
# output: bare number, no unit

The following compounds have reported results that may help.
CC[n+]1c(C=Cc2ccc(O[C@@H]3O[C@H](CO)[C@H](O)[C@H](O)[C@H]3O)c3ccccc23)sc2cc(OC)ccc21 [Compound 21] | 422
C[n+]1c(/C=C/c2ccc(O[C@@H]3O[C@H](CO)[C@H](O)[C@H](O)[C@H]3O)c3ccccc23)sc2ccc3ccccc3c21 [Compound 22] | 470

Exercise: // query λ max Substrate value for entry CC[N+]1=C(C=Cc2ccc(O[C@@H]3O[C@H](CO)[C@H](O)[C@H](O)[C@H]3O)cc2)C(C)(C)c2ccccc21 [Compound 16]
Solution: 406
